target: PI3Kγ (Homo sapiens, UniProt P48736); assay: PI3Kγ inhibitory activity (Ki value); format: biochemical; details: read-out: PI3Kγ Ki value
Sequence (P48736 whole entry, species assumed): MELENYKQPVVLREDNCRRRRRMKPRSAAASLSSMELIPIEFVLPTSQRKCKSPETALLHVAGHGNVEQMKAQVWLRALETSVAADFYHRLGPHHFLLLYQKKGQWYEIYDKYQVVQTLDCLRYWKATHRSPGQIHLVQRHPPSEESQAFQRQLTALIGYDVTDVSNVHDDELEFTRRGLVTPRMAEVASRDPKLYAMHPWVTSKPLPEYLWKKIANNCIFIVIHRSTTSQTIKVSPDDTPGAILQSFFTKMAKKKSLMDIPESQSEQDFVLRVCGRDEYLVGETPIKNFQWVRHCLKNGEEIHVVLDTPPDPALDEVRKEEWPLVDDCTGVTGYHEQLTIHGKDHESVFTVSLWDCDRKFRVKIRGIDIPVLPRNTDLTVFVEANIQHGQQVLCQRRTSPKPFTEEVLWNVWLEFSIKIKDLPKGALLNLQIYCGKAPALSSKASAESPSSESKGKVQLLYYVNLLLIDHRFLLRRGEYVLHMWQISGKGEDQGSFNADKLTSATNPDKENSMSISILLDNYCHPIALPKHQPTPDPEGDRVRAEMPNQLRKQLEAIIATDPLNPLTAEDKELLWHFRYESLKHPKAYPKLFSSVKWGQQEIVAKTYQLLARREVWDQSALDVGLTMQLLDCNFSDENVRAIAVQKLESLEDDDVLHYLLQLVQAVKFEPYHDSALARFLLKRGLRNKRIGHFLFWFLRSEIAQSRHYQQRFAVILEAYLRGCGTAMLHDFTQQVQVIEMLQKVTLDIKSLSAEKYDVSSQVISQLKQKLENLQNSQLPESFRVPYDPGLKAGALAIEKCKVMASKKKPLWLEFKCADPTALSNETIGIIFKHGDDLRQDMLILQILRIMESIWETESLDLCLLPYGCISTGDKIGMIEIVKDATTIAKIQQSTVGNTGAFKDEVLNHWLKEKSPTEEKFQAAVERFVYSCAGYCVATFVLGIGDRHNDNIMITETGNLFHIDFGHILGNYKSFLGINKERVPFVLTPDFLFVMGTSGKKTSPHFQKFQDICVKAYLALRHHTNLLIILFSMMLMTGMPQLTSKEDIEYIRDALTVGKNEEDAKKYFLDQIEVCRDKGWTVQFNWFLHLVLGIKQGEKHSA
measured-metric: Ki (nM)

- COc1cc(N2CCc3nc(NC(=O)Nc4cn(C)nc4C(=O)NCC(F)(F)F)sc3C2)nc(OC)n1: 5.5
- CC(C)CCc1ccccc1NC(=O)Nc1cc2n(n1)CCN2c1ccc2c(c1)CCN(C)C2=O: 2300
- COc1cncc(-c2cc(NC(=O)Nc3ccccc3C(=O)NC(C)C)nn2C)c1: 830
- COc1cncc(-c2ccc3nc(NC(=O)Nc4ccccc4OCCC(C)C)cn3n2)c1: 33
- CC(C)NC(=O)c1ccccc1NC(=O)Nc1cn2nc(-c3cccc(S(C)(=O)=O)c3)ccc2n1: 13
- CC(C)NC(=O)c1ccccc1NC(=O)Nc1nc2c(s1)CN(c1cncc(C(F)(F)F)c1)CC2: 0.8
- COc1cc(C2(F)CCc3nc(NC(=O)Nc4ccccc4C(=O)NC(C)C)sc3C2)nc(OC)n1 (stereo not shown): 110
- Cc1cc(N2Cc3sc(NC(=O)Nc4ccccc4C(=O)NC(C)C)nc3C(C)C2)nc(Cl)n1 (stereo not shown): 9.4
- COc1cncc(-c2ccc3nc(NC(=O)Nc4ccccc4OCCC(C)C)nn3c2)c1: 230
- C[C@@H](CO)NC(=O)c1ccccc1NC(=O)Nc1nc2c(s1)CN(c1cc[nH]c(=O)c1)CC2: 90
- COc1cccc(-c2ccc3nc(NC(=O)Nc4ccccc4C(=O)NC(C)C)cn3n2)c1: 25
- CC(C)CCOc1ccccc1NC(=O)Nc1cc2n(n1)CCN2c1ccc2c(c1)CCN(C)C2=O: 1100
- COc1cc(-c2ccc3nc(NC(=O)Nc4ccccc4OCCC(C)C)sc3c2)nc(OC)n1: 58
- COc1nc(Cl)cc(N2CCc3nc(NC(=O)Nc4ccccc4C(=O)NC4CCCC4O)sc3C2)n1 (stereo not shown): 3.6
- COc1cc(N2CCc3nc(NC(=O)Nc4ccccc4C(=O)NC(C)C)sc3C2)nc(OC)n1: 9.6
- CC(C)CCOc1ccccc1NC(=O)Nc1cn2nc(-c3cccc(S(C)(=O)=O)c3)ccc2n1: 61

* * *

Tested on: AKT phosphorylation
Test: AKT phosphorylation inhibitory activity in MCP-1 stimulated THP-1 cells (sandwich ELISA)
Assay type: cell-based, Human
Conditions: Homo sapiens, compound at 1 μmol/L, MCP-1 stimulation, read-out: AKT phosphorylation inhibition ratio
Protocol: (1) The AKT phosphorylation inhibitory activity of a compound was evaluated according to the following procedure. […] (5) The amount of AKT phosphorylation in the cell solution was measured by sandwich ELISA method using anti-Phospho-Akt (Ser473) antibody and anti-AKT1 antibody. […] (9) 100 μL of stop solution was added to quench the color reaction, and then the absorbance at 450 nm was measured. […]
measured-metric: inhibition at 1 µM (%)

* COc1cc(N2CCc3nc(NC(=O)Nc4ccccc4C(=O)NC(C)(C)C)sc3C2)nc(OC)n1 [Compound I-7] | 77.6
* COc1cc(N2CCc3nc(NC(=O)Nc4cnccc4C(=O)NC(C)C)sc3C2)nc(OC)n1 [Compound I-27] | 94.1
* COc1cc(N2CCc3nc(NC(=O)Nc4ccccc4C(=O)NN4CCOCC4)sc3C2)nc(OC)n1 [Compound I-193] | 81
* CC(C)NC(=O)c1ccccc1NC(=O)Nc1nc2c(s1)CN(c1cccc(S(C)(=O)=O)c1)CC2 [Compound I-198] | 94
* Cc1nc(NC(=O)Nc2ccccc2C(=O)NC(C)C)sc1-c1ccc(S(C)(=O)=O)c(F)c1 [Compound I-127] | 77.7
* COc1cc(N2CCc3nc(NC(=O)Nc4ccccc4C(=O)NC4CCCCC4O)sc3C2)nc(OC)n1 (stereo not drawn) [Compound I-161] | 93
* COc1cncc(-c2ccc3nc(NC(=O)Nc4ccccc4OCCC(C)C)cn3n2)c1 [Compound I-114] | 64.9
* COc1nc(Cl)cc(N2CCc3nc(NC(=O)Nc4ccccc4C(=O)NC4CCCOC4)sc3C2)n1 (stereo not drawn) [Compound I-197] | 90
* CC(C)NC(=O)c1ccccc1NC(=O)Nc1nc2c(s1)CN(c1cncc(S(C)(=O)=O)c1)CC2 [Compound I-166] | 76
* COc1cc(N2CCc3nc(NC(=O)Nc4cnccc4OCCC(C)C)sc3C2)nc(OC)n1 [Compound I-97] | 80.4
